Target: hCB2 (Homo sapiens, UniProt P34972)
Construct: host or cells: CHO-K1
Sequence (P34972 whole entry): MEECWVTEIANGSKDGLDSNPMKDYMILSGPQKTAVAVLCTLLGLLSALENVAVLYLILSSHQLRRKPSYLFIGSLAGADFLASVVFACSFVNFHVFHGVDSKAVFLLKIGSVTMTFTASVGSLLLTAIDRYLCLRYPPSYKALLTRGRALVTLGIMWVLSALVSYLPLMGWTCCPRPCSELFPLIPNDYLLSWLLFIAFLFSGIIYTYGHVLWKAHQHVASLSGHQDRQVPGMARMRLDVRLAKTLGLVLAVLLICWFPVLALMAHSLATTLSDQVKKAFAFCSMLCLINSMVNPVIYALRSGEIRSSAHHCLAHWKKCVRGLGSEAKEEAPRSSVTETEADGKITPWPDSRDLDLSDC
Assay: cAMP assay (LANCE TR-FRET) in CHO-K1 cells stably expressing hCB2, agonist/inverse agonist
Format: cell-based
Conditions: intracellular cAMP, CHO-K1 hCB2 cells prestimulated with NKH-477; + agonist, − inverse agonist
metricName: hCB2 EC50 class

COc1ncc(-c2cc3c(n(CC4CCC4)c2=O)CCCC3)c(OC)n1
+B
CC(=O)N1CCc2c(cc(-c3cccc(Cl)c3)c(=O)n2CC2CCC2)C1
+A
CC(=O)N1CCc2c(cc(-c3ccc(C(F)(F)F)cc3)c(=O)n2CC2CCC2)C1
+B
O=c1c(-c2ccccc2)cc2c(n1CC1CC1)CCCC2
+B
O=c1c(-c2ccc(C(F)(F)F)cc2)cc2c(n1CC1CCCCC1)CCCC2
+B

query: What does the record list as hCB2 EC50 class for `CC(=O)N1CCc2c(cc(-c3ccccc3F)c(=O)n2CC2CCC2)C1` ?
result: +B

* * *

Biological target: hCB2 (Homo sapiens, UniProt P34972)
Construct: host or cells: CHO-K1
Experiment: cAMP assay (LANCE TR-FRET) in CHO-K1 cells stably expressing hCB2, agonist/inverse agonist
Assay type: cell-based
Conditions: intracellular cAMP, CHO-K1 hCB2 cells prestimulated with NKH-477; + agonist, − inverse agonist
metricName: hCB2 EC50 class

Past entries and their recorded results:
O=c1c(-c2ccccc2C(F)(F)F)cc2c(n1CC1CCC1)CCCC2 [Compound 20]
+B
O=c1c(-c2cccc(Cl)c2)cc2c(n1CC1CCC1)CCCC2 [Compound 8]
+A
O=c1c(-c2ccccc2Cl)cc2c(n1CC1CCC1)CCCC2 [Compound 18]
+B
CC(C)C(=O)N1CCc2c(cc(-c3cccc(Cl)c3)c(=O)n2CC2CC2)C1 [Compound 51]
+B
O=c1c(-c2ccccc2F)cc2c(n1CC1CCC1)CCCC2 [Compound 15]
+B

Please find the next compound below.
query: # hCB2 EC50 class lookup, item CC(=O)N1CCc2c(cc(-c3cccnc3)c(=O)n2CC2CCC2)C1 [Compound 46]
result: +B

* * *

Target: rCB2 (Rattus norvegicus, UniProt Q9QZN9)
Sequence (Q9QZN9 1-360): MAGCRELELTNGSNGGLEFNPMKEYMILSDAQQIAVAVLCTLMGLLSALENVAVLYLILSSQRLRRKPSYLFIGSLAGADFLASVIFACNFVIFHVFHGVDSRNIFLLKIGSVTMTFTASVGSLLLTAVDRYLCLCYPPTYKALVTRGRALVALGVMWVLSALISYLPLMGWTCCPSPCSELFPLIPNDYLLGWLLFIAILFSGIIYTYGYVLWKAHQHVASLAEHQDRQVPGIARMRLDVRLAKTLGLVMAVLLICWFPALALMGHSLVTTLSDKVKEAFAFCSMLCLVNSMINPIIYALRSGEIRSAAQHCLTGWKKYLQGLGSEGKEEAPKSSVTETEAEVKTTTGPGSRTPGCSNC
Assay: cAMP assay, rCB2 in Table 7, agonist/inverse agonist
Assay type: cell-based
Conditions: intracellular cAMP; + agonist, − inverse agonist
metricName: rCB2 EC50 class

O=c1c(Cc2ccncc2)cc2c(n1CC1CCC1)CCCC2 [Compound 32]
+B
O=c1c(-c2cc3c(n(CC4CCC4)c2=O)CCCC3)cc2c(n1CC1CCC1)CCCC2 [Compound 5]
+A
Cc1ccccc1Cc1cc2c(n(CC3CCC3)c1=O)CCCC2 [Compound 30]
+A
CS(=O)(=O)N1CCc2c(cc(-c3cccc(Cl)c3)c(=O)n2CC2CC2)C1 [Compound 48]
+A
O=c1c(-c2cccc(Cl)c2)cc2c(n1CC1CC1)CCCC2 [Compound 22]
−B

query: Record lookup: for rCB2 (Rattus norvegicus, UniProt Q9QZN9), what rCB2 EC50 class belongs to CC(=O)N1CCc2c(cc(-c3ccc(C(F)(F)F)cc3)c(=O)n2CC2CCC2)C1 [Compound 44] ?
result: +B

query: Form entry - test system: rCB2 (Rattus norvegicus, UniProt Q9QZN9); read-out: rCB2 EC50 class; molecule: O=c1c(-c2cccc(C(F)(F)F)c2)cc2c(n1CC1CCC1)CCCC2 [Compound 6]
result: +A

* * *

Biological target: hCB1 (Homo sapiens)
Construct: host or cells: CHO-K1
Sequence (P21554 whole entry): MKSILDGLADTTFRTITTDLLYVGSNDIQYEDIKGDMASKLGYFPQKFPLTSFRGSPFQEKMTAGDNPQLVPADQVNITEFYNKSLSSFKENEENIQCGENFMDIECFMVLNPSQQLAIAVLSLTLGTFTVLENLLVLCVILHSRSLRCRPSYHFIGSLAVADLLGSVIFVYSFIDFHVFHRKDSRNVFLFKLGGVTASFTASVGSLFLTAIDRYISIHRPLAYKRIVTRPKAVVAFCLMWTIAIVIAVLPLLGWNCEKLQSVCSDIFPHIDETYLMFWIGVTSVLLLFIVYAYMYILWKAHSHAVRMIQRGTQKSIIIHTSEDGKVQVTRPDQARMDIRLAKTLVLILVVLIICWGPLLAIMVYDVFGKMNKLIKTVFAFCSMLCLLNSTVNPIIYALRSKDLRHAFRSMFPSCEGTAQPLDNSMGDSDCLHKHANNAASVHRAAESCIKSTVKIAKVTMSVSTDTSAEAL
Experiment: cAMP assay (LANCE TR-FRET) in CHO-K1 cells stably expressing hCB1, agonist/inverse agonist
Format: cell-based
Conditions: intracellular cAMP, CHO-K1 hCB1 cells prestimulated with NKH-477; + agonist, − inverse agonist
metricName: hCB1 EC50 class

// solved cases for hCB1 EC50 class follow
CS(=O)(=O)N1CCc2c(cc(Cc3ccccc3F)c(=O)n2CC2CCC2)C1 [Compound 58]
+B
CC(=O)N1CCc2c(cc(-c3cccc(Cl)c3)c(=O)n2CC2CCC2)C1 [Compound 42]
+C
O=c1c(-c2cc3c(n(CC4CCC4)c2=O)CCCC3)cc2c(n1CC1CCC1)CCCC2 [Compound 5]
+C
O=c1c(-c2cccc(F)c2)cc2c(n1CC1CC1)CCCC2 [Compound 4]
+C

query: I have this compound here, O=c1c(-c2ccc(C(F)(F)F)cc2)cc2c(n1CC1CCC1)CCN(S(=O)(=O)c1ccccc1)C2 [Compound 56] , and I need its recorded hCB1 EC50 class.
result: −B

query: Any idea what its hCB1 EC50 class is? The compound is COc1cccc(-c2cc3c(n(CC4CCC4)c2=O)CCN(C(C)=O)C3)c1 [Compound 55]
result: −B

* * *

Target: rCB2 (Rattus norvegicus, UniProt Q9QZN9)
Sequence (Q9QZN9 1-360): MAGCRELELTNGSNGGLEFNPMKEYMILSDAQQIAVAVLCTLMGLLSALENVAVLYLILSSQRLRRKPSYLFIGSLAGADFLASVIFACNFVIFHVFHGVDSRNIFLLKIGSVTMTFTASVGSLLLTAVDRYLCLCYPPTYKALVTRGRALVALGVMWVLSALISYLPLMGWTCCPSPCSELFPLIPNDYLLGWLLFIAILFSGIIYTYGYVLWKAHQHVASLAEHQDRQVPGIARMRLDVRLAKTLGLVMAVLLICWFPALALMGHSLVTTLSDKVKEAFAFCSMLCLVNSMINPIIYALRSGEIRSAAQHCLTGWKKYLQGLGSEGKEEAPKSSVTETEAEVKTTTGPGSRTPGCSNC
Test: cAMP assay, rCB2 in Table 7, agonist/inverse agonist
Type: cell-based
Conditions: intracellular cAMP; + agonist, − inverse agonist
metricName: rCB2 EC50 class

// known answers, use as guide
O=c1c(-c2ccccc2)cc2c(n1CC1CC1)CCCC2 [Compound 2]
+C
O=c1c(-c2cccc(Cl)c2)cc2c(n1CC1CCCCC1)CCCC2 [Compound 25]
+A
CS(=O)(=O)N1CCc2c(cc(-c3ccc(C(F)(F)F)cc3)c(=O)n2CC2CCC2)C1 [Compound 43]
+B
O=c1c(-c2cccnc2)cc2c(n1CC1CCC1)CCCC2 [Compound 10]
+B
O=c1c(Cc2ccccc2F)cc2c(n1CC1CCC1)CCCC2 [Compound 31]
+A
O=c1c(-c2ccccc2Cl)cc2c(n1CC1CCC1)CCCC2 [Compound 18]
+B
O=c1c(Cc2ccc(F)cc2)cc2c(n1CC1CCC1)CCCC2 [Compound 33]
+B
CC(=O)N1CCc2c(cc(-c3ccccc3F)c(=O)n2CC2CCC2)C1 [Compound 54]
+A
O=c1c(-c2cn[nH]c2)cc2c(n1CC1CCC1)CCCC2 [Compound 28]
−C
O=c1c(-c2ccccc2C(F)(F)F)cc2c(n1CC1CCC1)CCCC2 [Compound 20]
+B

query: Could you tell me which rCB2 EC50 class is on file for COc1ncc(-c2cc3c(n(CC4CCC4)c2=O)CCCC3)c(OC)n1 [Compound 29] ?
result: +A

query: Quick one: rCB2 EC50 class of COc1cccc(-c2cc3c(n(CC4CCC4)c2=O)CCN(S(C)(=O)=O)C3)c1 [Compound 52] ?
result: +A

query: Reported rCB2 EC50 class for COc1cccc(-c2cc3c(n(CC4CCC4)c2=O)CCCC3)c1 [Compound 16] : what is it?
result: +B

* * *

Target: hCB2 (Homo sapiens, UniProt P34972)
Construct: host or cells: CHO-K1
Assay: cAMP assay (LANCE TR-FRET) in CHO-K1 cells stably expressing hCB2, agonist/inverse agonist
Format: cell-based
Settings: intracellular cAMP, CHO-K1 hCB2 cells prestimulated with NKH-477; + agonist, − inverse agonist
metricName: hCB2 EC50 class

Here's what some known entries look like.
O=c1c(-c2ccc(Cl)cc2)cc2c(n1CC1CCC1)CCCC2
+B
O=c1c(-c2cccs2)cc2c(n1CC1CCC1)CCCC2
+B
Cn1cc(-c2cc3c(n(CC4CCC4)c2=O)CCCC3)cn1
+B
CC(C)CS(=O)(=O)N1CCc2c(cc(-c3cccc(Cl)c3)c(=O)n2CC2CC2)C1
+C
O=c1c(-c2cccnc2)cc2c(n1CC1CCC1)CCNC2
+C
O=c1c(C2=NN(c3ccccc3)C(c3ccco3)C2)cc2c(n1CC1CCC1)CCCC2 (stereo not shown)
+C

query: Recorded hCB2 EC50 class for `CS(=O)(=O)N1CCc2c(cc(-c3ccccc3F)c(=O)n2CC2CCC2)C1` , please?
result: +A

query: Field request: hCB2 EC50 class | item: `COc1ccncc1-c1cc2c(n(CC3CCC3)c1=O)CCCC2`
result: +B
